Target: Renin (Homo sapiens)
Sequence (P00797 whole entry): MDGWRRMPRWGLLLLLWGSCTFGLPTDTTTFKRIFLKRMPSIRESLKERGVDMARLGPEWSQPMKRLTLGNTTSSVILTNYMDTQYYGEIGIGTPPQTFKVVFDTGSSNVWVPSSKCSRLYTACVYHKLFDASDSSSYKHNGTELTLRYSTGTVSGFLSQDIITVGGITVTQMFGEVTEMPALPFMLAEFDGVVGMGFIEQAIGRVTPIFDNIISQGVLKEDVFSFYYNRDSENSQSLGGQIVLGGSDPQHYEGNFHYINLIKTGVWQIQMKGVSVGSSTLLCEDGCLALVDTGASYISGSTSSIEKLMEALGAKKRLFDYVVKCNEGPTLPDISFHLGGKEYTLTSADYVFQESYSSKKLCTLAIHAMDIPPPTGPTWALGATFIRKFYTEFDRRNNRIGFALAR
Assay: Dissociation constant (Kd) of renin inhibitor was determined over a temperature range of 8-37 degree by the fluorescence displacement assay
measurement-name: Kd (nM)
Report the figure in nM without appending any unit label.

Inquiry: Param item = `H-PHPFHFFIHK-OH` ; retrieve measured Kd.
Reply text: 810
